System: IRAK4 (Homo sapiens (Human), UniProt Q9NWZ3) | Read-out: pIC50
Sequence (Q9NWZ3 whole entry): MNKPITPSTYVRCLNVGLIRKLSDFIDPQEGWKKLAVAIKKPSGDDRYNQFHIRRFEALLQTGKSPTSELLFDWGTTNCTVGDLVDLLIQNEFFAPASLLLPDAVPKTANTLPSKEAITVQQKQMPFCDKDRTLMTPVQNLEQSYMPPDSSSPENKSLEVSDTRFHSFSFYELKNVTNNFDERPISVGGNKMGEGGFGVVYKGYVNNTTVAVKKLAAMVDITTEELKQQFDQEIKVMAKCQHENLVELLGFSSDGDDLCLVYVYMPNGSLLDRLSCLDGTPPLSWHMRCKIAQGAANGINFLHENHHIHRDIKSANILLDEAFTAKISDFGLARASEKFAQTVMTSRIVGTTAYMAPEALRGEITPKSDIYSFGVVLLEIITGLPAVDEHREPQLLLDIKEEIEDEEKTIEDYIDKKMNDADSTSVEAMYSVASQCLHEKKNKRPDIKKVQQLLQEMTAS
Hey, just a heads up that pIC50 is the negative log base 10 of the concentration in molar.

Worked cases, answers included:
[[record]]
compound = "CS(=O)(=O)N1CCN([C@H]2CC[C@H](Nc3ncnc4ccc(-c5cnc(F)c(N)c5)cc34)CC2)CC1"
measuredresult = 8.40

[[record]]
compound = "CN(C)c1cc(-c2ccc3ncnc(N[C@H]4CC[C@H](N5CCOCC5)CC4)c3c2)cnc1F"
measuredresult = 7.14

[[record]]
compound = "CNc1cncc(-c2ccc3ncnc(N[C@H]4CC[C@H](N5CCN(S(C)(=O)=O)CC5)CC4)c3c2)c1"
measuredresult = 8.10

[[record]]
compound = "CN(C)[C@H]1CC[C@H](Nc2ncnc3ccc(-c4cnc5ccoc5c4)cc23)CC1"
measuredresult = 6.96

[[record]]
compound = "CN(C)[C@H]1CC[C@H](Nc2ncnc3ccc(-c4ccc(C#N)nc4)cc23)CC1"
measuredresult = 7.37

[[record]]
compound = "Cc1c(-c2cnn(C)c2)ccc2ncnc(N[C@H]3CC[C@H](N4CCOCC4)CC3)c12"
measuredresult = 5.88

[[record]]
compound = "Cc1cnccc1-c1ccc2ncnc(N[C@H]3CC[C@H](N(C)C)CC3)c2c1"
measuredresult = 6.81

[[record]]
compound = "Oc1ncc(C(F)(F)F)cc1-c1ccc2ncnc(N[C@H]3CC[C@H](N4CCOCC4)CC3)c2c1"
measuredresult = 6.03

[[record]]
compound = "Oc1cc(-c2ccc3ncnc(N[C@H]4CC[C@H](N5CCOCC5)CC4)c3c2)cnc1Cl"
measuredresult = 9.00

[[record]]
compound = "CN(C)[C@H]1CC[C@H](Nc2ncnc3ccc(-c4cnc(NC5CC5)nc4)cc23)CC1"
measuredresult = 7.96


Ask: Give IRAK4 (Homo sapiens (Human), UniProt Q9NWZ3) pIC50 for CN(C)[C@H]1CC[C@H](Nc2ncnc3ccc(-c4ccnnc4)cc23)CC1
Reply: 7.96

Ask: Please give the result for CN(C)C1CCC(Nc2ncnc3ccc(-c4ccncc4)cc23)CC1 (single isomer, unassigned) too.
Reply: 5.64
